molecular target: T1, 人MUC17-Fc蛋白 (human, UniProt Q685J3 4131-4390); experiment: ELISA, MUC17-Fc coated, murine antibody titrated
T1 construct: range 4131-4390; No linker is described; also called MUC17抗原; not shown: C-terminal Fc tag
T1 sequence (Q685J3 4131-4390 limits assumed, form in doubt): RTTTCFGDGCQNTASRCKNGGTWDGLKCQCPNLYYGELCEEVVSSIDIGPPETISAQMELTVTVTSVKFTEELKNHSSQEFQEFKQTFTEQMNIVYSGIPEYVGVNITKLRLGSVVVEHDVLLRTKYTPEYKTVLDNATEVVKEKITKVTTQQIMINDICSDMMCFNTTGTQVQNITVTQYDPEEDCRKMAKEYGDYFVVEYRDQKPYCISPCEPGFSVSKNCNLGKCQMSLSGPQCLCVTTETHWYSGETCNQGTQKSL
Top values, listed per item
API: value field is a number in OD450; no unit string.

Worked examples follow.
BINDER	MEASURE	UNIT_SPEC	EXPERIMENTAL_RESULT
15D10 (antibody, V domains shown) VH: QVQLQQPGAELVKPGASVKMSCKASGYTFTTYWMHWVKQRSGQGLEWIGVIDPSDSYTRYNQKFKDKATLTVDTSSSTAYMHLTSLTSEDSAVYYCTRSGIGNSFIMDYWGQGTSVTVSS VL: QVVLTQSPAIMPAFPGEKVTISCSASSSVIYMFWYQQKPGSSPKPWIYRTSNLASGVPARFTGSGSGTSYSLTISSMEAEDAATYYCQQYHSYPLTFGVGTKLELK	Top	OD450	2.79
11C8 (antibody, V domains shown) VH: QVQLKESGPGLVAPSQSLSITCTVSGFSLTAYGVHWVRQPPGKGLEWLGGIWAGGSTQSNSALMSRLSISKDSSKSQVFLRMNSLQTDDSAMYYCARALFYGNFDVWGAGTTVTVSS VL: DIVMTQSQKFMSTSVGDRVSVTCKASQSVDTSVAWYQQRPGQSPEALIFSASYRYSGVPDRFTGSGSGTDFTLTINNVQSEDLAEYFCQQYNSYPYTFGGGTNLEIK	Top	OD450	2.25
56E8 (antibody, V domains shown) VH: QVQLKESGPGLVAPSQSLSITCTVSGFSLTAYGVHWVRQPPGKGLEWLGGIWAGGSTKSNSALMSSLSISKDNSKSQVFLKMNSLQTDDSAMYYCARALFYGYFDVWGAGTTVTVSS VL: DIVMTQSQKFMSTSVGDRVSVTCKASQSVDTNVAWYQQRPGQSPEALIFSASYRYSGVPDRFTGSGSGTDFTLTISNVQSEDLAEYFCQQYNVYPYTFGGGTNLEIK	Top	OD450	1.97
8H2 (antibody, V domains shown) VH: EVNLVESGGGLVKPGGSLKLSCAASGFAFSNYDMSWVRQTPEKRLEWVATISGGGSYTYYPDNVKGRFTISRDNAMNTLYLQMSSLRSEDTALYYCASVNWGFPYWGQGTLVTVSA VL: DIVMSQSPSSLAVSIGEKVTMSCKSSQSLLYSRNQKNYLAWYQQKPGQSPILLIYWTSTRESGVPDRFTGSGSGTDFTLTISGVKAEDLAVYYCQQYYTSPWTFGGGTRLEIK	Top	OD450	2.74
23F6 (antibody, V domains shown) VH: QVQLKESGPGLVAPSQSLSITCTVSGFSLTAYGVHWVRQPPGKGLEWLGGIWAGGNTQSHSALMSRVSISKDISKRQVFLKMDRLQTDDSAIYYCARALFYGNFDVWGAGTTVTVSS VL: DIVMTQSQRFMSTSVGDRVSVTCKASQSVDTSVAWYQQRPGQSPEALIFSASYRYSGVPDRFTGSGSGTDFTLTISNVQSEDLAEYFCQQYNSYPYTFGGGTNLEMR	Top	OD450	2.88
51E12 (antibody, V domains shown) VH: QVQLQQSGPELVKPGASVKISCKVSGNAFSLSWMNWVKQRPGQGLEWIGRIYPGDGDSNYNGKFKGKATLTADKSSSTVFMQLSSLTSVDSAVYFCANYYGSSSWFVYWGQGTLVTVSA VL: DVVMTQTPLSLPVSLGDQASISCRSSQSLVHSYGNTYLHWYLQKPGQSPKLLIYKVSNRFSGVPDRFSGSGSGTDFTLKISRVETEDLGVYFCSQSTHFPWTFGGGTKLEIK	Top	OD450	2.88

Proceed to the following item.
Request: Sample 50A5 (antibody, V domains shown) VH: QVQLKESGPGLVAPSQSLSITCTVSGFSLTAYGVHWVRQPPGKGLEWLGGIWAGGNTQSHSALMSRLTISKDISKSQVFLRMNSLQTDDSAMYYCARALFYGNFDVWGAGTTVTVSS VL: DIVMTQSQRFMSTSVGDRVSVTCKASQSVDTSVAWYQQRPGQSPEALIFSASYRYSGVPDRFTGSGSGTDFTLTISNVQSEDLAEYFCQQYNSYPYTFGGGTNLEIK — what was its Top?
Response: 2.64
